Provenance of the data: paper PMC5601071

Target Desc: TREK-1 channel (hTREK-1/HEK cells) (Homo sapiens, UniProt O95069)
Construct: expressed in transfected cells
Sequence (O95069 whole entry): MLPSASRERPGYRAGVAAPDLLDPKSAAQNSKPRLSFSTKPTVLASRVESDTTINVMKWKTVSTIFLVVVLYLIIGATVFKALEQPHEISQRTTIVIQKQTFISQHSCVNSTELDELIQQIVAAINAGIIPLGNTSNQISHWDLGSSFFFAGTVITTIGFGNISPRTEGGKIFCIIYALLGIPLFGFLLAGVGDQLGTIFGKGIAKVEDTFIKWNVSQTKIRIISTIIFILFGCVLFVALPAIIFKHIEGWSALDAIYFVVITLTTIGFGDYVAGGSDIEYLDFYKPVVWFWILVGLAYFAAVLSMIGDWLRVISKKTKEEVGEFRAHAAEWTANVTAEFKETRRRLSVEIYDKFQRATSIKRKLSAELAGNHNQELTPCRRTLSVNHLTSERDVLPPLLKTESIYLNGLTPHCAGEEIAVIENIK
Assay Procedure: TREK-1 current inhibition, whole-cell patch-clamp on hTREK-1/HEK cell line
Type: cell-based
Condition: HEK293, peptide 100 nM; TREK-1 first activated with 10 μM arachidonic acid (AA); current density at 0 mV; hTREK-1/HEK cells; mean ± SEM, n = cells; read-out: % of TREK-1 inhibition
Residues, ends and D or L forms follow the SMILES beside them. *: point of attachment. FITC = O=C1OC2(c3ccc(O)cc3Oc3cc(O)ccc32)c2ccc(NC(=S)*)cc21; 5FAM = O=C1OC2(c3ccc(O)cc3Oc3cc(O)ccc32)c2ccc(C(=O)*)cc21
Consider the following compounds and their measured inhibition at 0.1 µM readings.
Output spec: scalar in %, unitless text.

Field: example entries. Status: answers known.
>>> result_value("CC(C)C[C@H](NC(=O)CNC(=O)[C@H](Cc1c[nH]c2ccccc12)NC(=O)[C@H](CO)NC(=O)[C@@H](NC(=O)CN)C(C)C)C(=O)O [PE 22-27] (H-GVSWGL-OH)")
25.7
>>> result_value("CC[C@H](C)[C@H](NC(=O)[C@@H]1CCCN1)C(=O)NCC(=O)N[C@H](C(=O)N[C@@H](CO)C(=O)N[C@@H](Cc1c[nH]c2ccccc12)C(=O)NCC(=O)N[C@@H](CC(C)C)C(=O)N[C@@H](CCCNC(=N)N)C(=O)O)C(C)C [PI-PE 22-28] (H-PIGVSWGLR-OH)")
46.2
>>> result_value("CCOC(=O)[C@H](CCCNC(=N)N)NC(=O)[C@H](CC(C)C)NC(=O)CNC(=O)[C@H](Cc1c[nH]c2ccccc12)NC(=O)[C@H](CO)NC(=O)[C@@H](NC(=O)CN)C(C)C [PE 22-28-O-Ethyl] (H-GVSWGLR-OEt)")
41.4
>>> result_value("CC(C)C[C@H](NC(=O)CNC(=O)[C@H](Cc1c[nH]c2ccccc12)NC(=O)[C@H](CO)NC(=O)[C@@H](NC(=O)[C@H](C)N)C(C)C)C(=O)N[C@@H](CCCNC(=N)N)C(=O)O [G/A-PE 22-28] (H-AVSWGLR-OH)")
50.6
>>> result_value("CC(C)[C@H](NC(=O)CN)C(=O)N[C@@H](CO)C(=O)N[C@@H](Cc1c[nH]c2ccccc12)C(=O)O [PE 22-25] (H-GVSW-OH)")
36
>>> result_value("CC(C)C[C@H](NC(=O)CNC(=O)[C@H](Cc1c[nH]c2ccccc12)NC(=O)[C@H](CO)NC(=O)[C@@H](NC(=O)CNC(=O)c1ccc2c(c1)C(=O)OC21c2ccc(O)cc2Oc2cc(O)ccc21)C(C)C)C(=O)N[C@@H](CCCNC(=N)N)C(=O)O [5'FAM-PE 22-28] (5FAM-GVSWGLR-OH)")
6.63
>>> result_value("COC(=O)[C@H](CCCNC(=N)N)NC(=O)[C@H](CC(C)C)NC(=O)CNC(=O)[C@H](Cc1c[nH]c2ccccc12)NC(=O)[C@H](CO)NC(=O)[C@@H](NC(=O)CN)C(C)C [PE 22-28-O-Methyl] (H-GVSWGLR-OMe)")
43
>>> result_value("CC[C@H](C)[C@H](NC(=O)[C@@H]1CCCN1C(=O)CNC(=O)[C@H](CO)NC(=O)[C@H](Cc1c[nH]c2ccccc12)NC(=O)[C@H](CCCNC(=N)N)NC(=O)[C@@H]1CCCN1C(=O)[C@@H](N)CC(C)C)C(=O)NCC(=O)N[C@H](C(=O)N[C@@H](CO)C(=O)N[C@@H](Cc1c[nH]c2ccccc12)C(=O)O)C(C)C [PE 14-25] (H-LPRWSGPIGVSW-OH)")
-14.7

Problem: Given CC(C)C[C@H](NC(=O)CNC(=O)[C@H](Cc1c[nH]c2ccccc12)NC(=O)[C@H](CO)NC(=O)[C@@H](NC(=O)CNC(=S)Nc1ccc2c(c1)C(=O)OC21c2ccc(O)cc2Oc2cc(O)ccc21)C(C)C)C(=O)N[C@@H](CCCNC(=N)N)C(=O)O [FITC-PE 22-28] ({FITC}-GVSWGLR-OH) , report its inhibition at 0.1 µM on TREK-1 channel (hTREK-1/HEK cells) (Homo sapiens, UniProt O95069).
Solution: 22.1

###

Target Desc: TREK-1 channel (hTREK-1/HEK cells) (Homo sapiens)
Construct: expressed in transfected cells
Assay Procedure: TREK-1 current inhibition, whole-cell patch-clamp on hTREK-1/HEK cell line
Type: cell-based
Condition: HEK293, read-out: % of TREK-1 inhibition
Experimental: The human TREK-1/HEK cell line (Moha ou Maati et al., [2011]) and the native HEK293 cell line were maintained in Dulbecco's Modified Eagle's Medium (DMEM) supplemented with 10% (v/v) heat-inactivated fetal bovine serum, 1% (v/v) penicillin-streptomycin, 1% Glutamax. […] Cells from the hTREK-1/HEK cell line were seeded at a density of 20,000 cells/35 mm dish. […] TREK-1 currents (ITREK−1) were recorded using RK400 patch-clamp amplifier (Axon Instrument, USA). […]
Residues, ends and D or L forms follow the SMILES beside them. *: point of attachment. Palmitoyl = CCCCCCCCCCCCCCCC(=O)*; For = O=C*
Consider the following molecules and their measured inhibition at 0.1 µM readings.
Output spec: scalar in %, unitless text.

>>> result_value("CCCCCCCCCCCCCCCC(=O)NCC(=O)N[C@H](C(=O)N[C@@H](CO)C(=O)N[C@@H](Cc1c[nH]c2ccccc12)C(=O)NCC(=O)N[C@@H](CC(C)C)C(=O)N[C@@H](CCCNC(=N)N)C(=O)O)C(C)C [Palmitoyl-PE 22-28] (Palmitoyl-GVSWGLR-OH)")
26.7

Proceed to the following item.
Problem: Given CC(C)C[C@H](NC(=O)CNC(=O)[C@H](Cc1c[nH]c2ccccc12)NC(=O)[C@H](CO)NC(=O)[C@@H](NC(=O)CNC=O)C(C)C)C(=O)N[C@@H](CCCNC(=N)N)C(=O)O [Formyl-PE 22-28] (For-GVSWGLR-OH) , report its inhibition at 0.1 µM on TREK-1 channel (hTREK-1/HEK cells) (Homo sapiens).
Solution: 32.5

###

Consider the following molecules and their measured inhibition at 0.1 µM readings.
Target Desc: TREK-1 channel (hTREK-1/HEK cells) (Homo sapiens)
Construct: expressed in transfected cells
Assay Procedure: TREK-1 current inhibition, whole-cell patch-clamp on hTREK-1/HEK cell line
Type: cell-based
Condition: HEK293, read-out: % of TREK-1 inhibition
Procedure: The human TREK-1/HEK cell line (Moha ou Maati et al., [2011]) and the native HEK293 cell line were maintained in Dulbecco's Modified Eagle's Medium (DMEM) supplemented with 10% (v/v) heat-inactivated fetal bovine serum, 1% (v/v) penicillin-streptomycin, 1% Glutamax. […] Cells from the hTREK-1/HEK cell line were seeded at a density of 20,000 cells/35 mm dish. […] TREK-1 currents (ITREK−1) were recorded using RK400 patch-clamp amplifier (Axon Instrument, USA). […]
Residues, ends and D or L forms follow the SMILES beside them. *: point of attachment. Dansyl = CN(C)c1cccc2c(S(=O)(=O)*)cccc12; Fmoc = O=C(OCC1c2ccccc2-c2ccccc21)*; Stearoyl = CCCCCCCCCCCCCCCCCC(=O)*; Myristoyl = CCCCCCCCCCCCCC(=O)*

>>> result_value("CC(C)C[C@H](NC(=O)CNC(=O)[C@H](Cc1c[nH]c2ccccc12)NC(=O)[C@H](CO)NC(=O)[C@@H](NC(=O)CNS(=O)(=O)c1cccc2c(N(C)C)cccc12)C(C)C)C(=O)N[C@@H](CCCNC(=N)N)C(=O)O [DansyI-PE 22-28] (Dansyl-GVSWGLR-OH)")
"48.8%"
>>> result_value("CC(=O)NCC(=O)N[C@H](C(=O)N[C@@H](CO)C(=O)N[C@@H](Cc1c[nH]c2ccccc12)C(=O)NCC(=O)N[C@@H](CC(C)C)C(=O)N[C@@H](CCCNC(=N)N)C(=O)O)C(C)C [Acetyl-PE 22-28] (Ac-GVSWGLR-OH)")
"20.5%"
>>> result_value("CC(C)C[C@H](NC(=O)CNC(=O)[C@H](Cc1c[nH]c2ccccc12)NC(=O)[C@H](CO)NC(=O)[C@@H](NC(=O)CNC(=O)OCC1c2ccccc2-c2ccccc21)C(C)C)C(=O)N[C@@H](CCCNC(=N)N)C(=O)O [F-Moc-PE 22-28] (Fmoc-GVSWGLR-OH)")
"5.83%"

Problem: Assign inhibition at 0.1 µM to the following record: CCCCCCCCCCCCCCCCCC(=O)NCC(=O)N[C@H](C(=O)N[C@@H](CO)C(=O)N[C@@H](Cc1c[nH]c2ccccc12)C(=O)NCC(=O)N[C@@H](CC(C)C)C(=O)N[C@@H](CCCNC(=N)N)C(=O)O)C(C)C [Stearic acid-PE 22-28] (Stearoyl-GVSWGLR-OH)
Solution: 5.41%

Problem: Assign inhibition at 0.1 µM to the following record: CCCCCCCCCCCCCC(=O)NCC(=O)N[C@H](C(=O)N[C@@H](CO)C(=O)N[C@@H](Cc1c[nH]c2ccccc12)C(=O)NCC(=O)N[C@@H](CC(C)C)C(=O)N[C@@H](CCCNC(=N)N)C(=O)O)C(C)C [Myristoyl-PE 22-28] (Myristoyl-GVSWGLR-OH)
Solution: 18%
